- Test system: M14
- settings: human, 48 h
readout.name: CC50 (µM)
Write the number in µM without appending the unit.

QUERY: For the compound O=C(O)CCCCCN1C(=O)/C(=C/C=C/c2ccc([N+](=O)[O-])o2)SC1=S [14b] , what CC50 is on record?
RESULT: 3.23

###

- System: NCI-H522
- assay.method.text: NCI-60 SRB screen
- settings: Homo sapiens, NCI-H522, 48 h, read-out: LC50, NCI-H522, 48 h
readout.name: CC50 (µM)
Write the number in µM without appending the unit.

// below: answered molecules
CC(C)C(C(=O)O)N1C(=O)/C(=C/C=C/c2ccc([N+](=O)[O-])o2)SC1=S (centres unmarked); 5.69
O=C(O)C(c1ccccc1)N1C(=O)/C(=C/C=C/c2ccc([N+](=O)[O-])o2)SC1=S (centres unmarked); 64.6
CCCCC(C(=O)O)N1C(=O)/C(=C/C=C/c2ccc([N+](=O)[O-])o2)SC1=S (centres unmarked); 6.78

QUERY: For the molecule O=C(O)CCN1C(=O)/C(=C/C=C/c2ccc([N+](=O)[O-])o2)SC1=S [12b] , what CC50 is on record?
RESULT: 5.52

QUERY: For the molecule CCCC(C(=O)O)N1C(=O)/C(=C/C=C/c2ccc([N+](=O)[O-])o2)SC1=S (centres unmarked) , what CC50 is on record?
RESULT: 6.48

###

Listed here: items and their measured CC50.
- Test system: UACC-257
- settings: human, 48 h
Write the number in µM without appending the unit.

O=C(O)CCCN1C(=O)/C(=C/C=C/c2ccc([N+](=O)[O-])o2)SC1=S [13b]; 4.66

QUERY: For the compound O=C(O)CCCCCN1C(=O)/C(=C/C=C/c2ccc([N+](=O)[O-])o2)SC1=S [14b] , what CC50 is on record?
RESULT: 6.81

###

- System: SK-MEL-5
- assay.method.text: cells
- settings: Homo sapiens, SK-MEL-5, 48 h, read-out: LC50, SK-MEL-5, 48 h
readout.name: CC50 (µM)
Write the number in µM without appending the unit.

// below: answered molecules
CCCCC(C(=O)O)N1C(=O)/C(=C/C=C/c2ccc([N+](=O)[O-])o2)SC1=S (stereo not shown) [6b]; 5.29
O=C(O)C(c1ccccc1)N1C(=O)/C(=C/C=C/c2ccc([N+](=O)[O-])o2)SC1=S (stereo not shown) [9b]; 38.8
O=C(O)CCCCCN1C(=O)/C(=C/C=C/c2ccc([N+](=O)[O-])o2)SC1=S [14b]; 4.6
O=C(O)CCCN1C(=O)/C(=C/C=C/c2ccc([N+](=O)[O-])o2)SC1=S [13b]; 4.61
CC(C)C(C(=O)O)N1C(=O)/C(=C/C=C/c2ccc([N+](=O)[O-])o2)SC1=S (stereo not shown) [5b]; 4.74
O=C(O)CCN1C(=O)/C(=C/C=C/c2ccc([N+](=O)[O-])o2)SC1=S [12b]; 4.87

Please examine the following record next.
QUERY: For the molecule CCCC(C(=O)O)N1C(=O)/C(=C/C=C/c2ccc([N+](=O)[O-])o2)SC1=S (stereo not shown) [4b] , what CC50 is on record?
RESULT: 5.31
